Origin of measurements: PubChem BioAssay (Tox21)

- Experimental Details: qHTS assay to identify small molecule antagonists of the farnesoid-X-receptor (FXR) signaling pathway - cell viability counter screen (AID 743221); also: nearly all actives have a fitted effect of over 50% in size
- Study Conditions: FXR-bla HEK293T viability, CellTiter-Glo luminescence, 16 h; series mostly up to 62.6 µM
Records with an inconclusive call do not appear. Calls of active or inactive are those of the source. Calls follow the shape of the dose curve; as a rule, active = well fitted cell-killing curve with a large enough effect in the repeat runs (not every such curve was filed as active); inconclusive = weak or mixed curves, or effect the other way; inactive = no such curve, though single readings can be large or run the other way. Residues, ends and D or L forms follow the SMILES beside them.
Measured Endpoint: outcome

The following compounds have reported results that may help.
Cc1ccccc1C(OCCN(C)C)c1ccccc1 (stereo not given)    inactive
Cc1noc(NS(=O)(=O)c2ccc(N)cc2)c1C    inactive
CCCNC(=O)NS(=O)(=O)c1ccc(Cl)cc1    inactive
COC(=O)[C@H](Cc1ccccc1)NC(=O)[C@@H](N)CC(=O)O (H-Asp-Phe-OMe)    inactive

// below: outcome requested for another compound
Request: Given C[C@]12C=CC(=O)C=C1CC[C@@H]1[C@@H]2[C@@H](O)C[C@@]2(C)[C@H]1CC[C@]2(O)C(=O)CO , state its recorded outcome.
Response: inactive
